Test: in vivo
Conditions: mouse, po
Measured TD50 by item
Write it as a number; the unit mg/kg goes unstated.

compound | quantitative_readout
CCC1(c2ccccc2)NC(=O)N(C)C1=O (centres unmarked) | 354

As a next step, examine the compound that follows.
(Q) I have this compound here, CC(NC(=O)c1ccc(N)cc1)c1ccccc1 (stereo not drawn) [4-amino-N-(alpha-methylbenzyl)-benzamide] , and I need its recorded TD50.
(A) 271

----------
Assay: lethality, LD50
Format: in vivo
Conditions: mouse, in vivo, ip, mice; intraperitoneal; read-out: Ratio LD50/TD50
The following compounds are shown together with reported selectivity ratio values.
Output spec: single numeric token, no unit.

compound | selectivity ratio
CC(NC(=O)c1ccc(N)cc1)c1ccccc1 (stereo not drawn) [4-amino-N-(alpha-methylbenzyl)-benzamide] | 4.21

(Q) May I ask what selectivity ratio has been recorded for CCC1(c2ccccc2)NC(=O)N(C)C1=O (centres unmarked) [Mephenytoin] ?
(A) 3.69

----------
Assay: lethality, LD50
Assay type: in vivo
Settings: mouse, in vivo, ip; mice; intraperitoneal; 24-hour period
measurement_label: LD50 at 24 h
Your reply should be a number followed by the unit it is expressed in.

Examples with answers:
molecule | result
NC(=O)N1c2ccccc2C=Cc2ccccc21 [Carbamazepine] | 629 mg/kg
CC(NC(=O)c1ccc(N)cc1)c1ccccc1 (stereo not drawn) [4-amino-N-(alpha-methylbenzyl)-benzamide] | 718 mg/kg

We next turn to a different molecule, shown below.
(Q) State the recorded LD50 at 24 h for this entry: CCC1(c2ccccc2)NC(=O)N(C)C1=O (stereo not drawn)
(A) 568 mg/kg

----------
Assay: in vivo
Conditions: mouse, po
measurement_label: selectivity ratio
Answer using only a numeral; do not append any unit.

(Q) Form field: reported selectivity ratio of CC(NC(=O)c1ccc(N)cc1)c1ccccc1 (stereo not drawn) [4-amino-N-(alpha-methylbenzyl)-benzamide]
(A) 5.69

----------
Experiment: in vivo
Conditions: mouse, ip
measurement_label: selectivity ratio
Please respond with just the number, no unit label.

(Q) Which selectivity ratio is reported for this molecule? CC(NC(=O)c1ccc(N)cc1)c1ccccc1 (stereo not drawn) [4-amino-N-(alpha-methylbenzyl)-benzamide]
(A) 9.48

----------
Experiment: subcutaneous Metrazol Seizure Threshold Test (sc Met), rats
Settings: rat, in vivo, po
measurement_label: selectivity ratio
The answer should be written as a number, with no unit following it.

(Q) For CCC1(c2ccccc2)NC(=O)N(C)C1=O (stereo not shown) , what is its reported selectivity ratio?
(A) 3.96

----------
Assay: lethality, LD50
Assay type: in vivo
Conditions: mouse, in vivo, ip, mice; intraperitoneal; read-out: Ratio LD50/HD50
measurement_label: selectivity ratio
Hey, just send me the number, nothing else.

compound | selectivity ratio
CC(NC(=O)c1ccc(N)cc1)c1ccccc1 (stereo not drawn) [4-amino-N-(alpha-methylbenzyl)-benzamide] | 1.56

Shifting focus to the compound that follows.
(Q) Reported selectivity ratio, compound CCC1(c2ccccc2)NC(=O)N(C)C1=O (centres unmarked) : ____
(A) 1.4

----------
Test: subcutaneous Metrazol Seizure Threshold Test (sc Met), mice
Conditions: mouse, in vivo, PI (TD50/ED50) sc Met, mice; intraperitoneal
measurement_label: selectivity ratio
Reply briefly: the number, and no unit.

compound | measurement_label | quantitative_readout
CCC1(c2ccccc2)NC(=O)N(C)C1=O (centres unmarked) | selectivity ratio | 5.05

Attention now shifts to the item below.
(Q) Requested read-out: selectivity ratio. Entry: CC(NC(=O)c1ccc(N)cc1)c1ccccc1 (stereo not drawn) [4-amino-N-(alpha-methylbenzyl)-benzamide]
(A) 4.09

----------
List of TD50 values.
Assay: hypnosis (loss of righting reflex), HD50
Conditions: mouse, in vivo, ip
Numeric only. Scale: mg/kg

compound | TD50 [mg/kg]
CCC1(c2ccccc2)C(=O)NC(=O)NC1=O | 135

(Q) For CC(NC(=O)c1ccc(N)cc1)c1ccccc1 (stereo not drawn) [4-amino-N-(alpha-methylbenzyl)-benzamide] , what is its reported TD50?
(A) 462

----------
Experiment: in vivo
Conditions: mouse, ip
Recorded TD50 values for a group of molecules are listed next.
Form entry: value (mg/kg) — number only.

molecule | unit_abbrev | quantitative_readout
NC(=O)N1c2ccccc2C=Cc2ccccc21 [Carbamazepine] | mg/kg | 172

(Q) Return reported TD50; argument: O=C1NC(=O)C(c2ccccc2)(c2ccccc2)N1 [Phenytoin]
(A) 178

(Q) Bench note: what TD50 did CCC1(c2ccccc2)NC(=O)N(C)C1=O (stereo not drawn) [Mephenytoin] show?
(A) 406

----------
Assay: in vivo
Conditions: mouse, ip
Hi! Just check whether TD50 is below 100 mg/kg. Below gives 1, equal or above gives 0.

Reference set (4 entries):
molecule | group
CCCN(CCC)C(=O)c1ccc(N)cc1 | 0
Nc1ccc(C(=O)NC2CCCCC2)cc1 | 0
CCCCCNC(=O)c1ccc(N)cc1 | 1
CC(NC(=O)c1ccc(N)cc1)c1ccccc1 (stereo not drawn) [4-amino-N-(alpha-methylbenzyl)-benzamide] | 0

Here is the next item to consider.
(Q) Does Nc1ccc(C(=O)NCc2ccccc2)cc1 [No. 4, 4-amino-N-benzyl-benzamide] have TD50 strictly under 100 mg/kg?
(A) 1

----------
Property: TD50; scope: individual molecules
Assay: Rotorod Toxicity Test, rats
Assay type: in vivo
Details: rat, in vivo, po
Reply numerically in mg/kg, unit not repeated.

molecule | TD50 [mg/kg]
CCC1(c2ccccc2)NC(=O)N(C)C1=O (stereo not drawn) | 85.7

Next:
(Q) Item under review: CC(NC(=O)c1ccc(N)cc1)c1ccccc1 (stereo not drawn) [4-amino-N-(alpha-methylbenzyl)-benzamide] . Reported TD50?
(A) 170

----------
Tested on: subcutaneous picrotoxin seizure threshold
Test: animal or person
Details: Mus musculus, ip, read-out: ED50 Picrotoxin
Reported ED50 values are given for each entry in this list.
Kindly answer with a numeric value in mg/kg, unit omitted.

compound | measurement_label | quantitative_readout
CCC1(c2ccccc2)C(=O)NC(=O)NC1=O | ED50 | 27.5
NC(=O)N1c2ccccc2C=Cc2ccccc21 [Carbamazepine] | ED50 | 37.2
CCC1(c2ccccc2)NC(=O)N(C)C1=O (stereo not shown) | ED50 | 101

Now look at this entry.
(Q) Field request: ED50 | item: CC(NC(=O)c1ccc(N)cc1)c1ccccc1 (stereo not drawn) [4-amino-N-(alpha-methylbenzyl)-benzamide]
(A) 191

----------
Experiment: subcutaneous Metrazol Seizure Threshold Test (sc Met), mice
Settings: mouse, in vivo, PI (TD50/ED50) sc Met, mice; oral
measurement_label: selectivity ratio

compound | selectivity ratio
CC(NC(=O)c1ccc(N)cc1)c1ccccc1 (stereo not drawn) [4-amino-N-(alpha-methylbenzyl)-benzamide] | < 0.9

Shift focus to the following entry.
(Q) Entry CCC1(c2ccccc2)NC(=O)N(C)C1=O (centres unmarked) has what selectivity ratio?
(A) 9.75

----------
Test: in vivo
Details: mouse, ip, PI (TD50/ED50) MES, mice, intraperitoneal
measurement_label: selectivity ratio
// no unit string in output, number only

(Q) Need selectivity ratio, item CCC1(c2ccccc2)NC(=O)N(C)C1=O (stereo not shown) [Mephenytoin]
(A) 2.54

----------
Experiment: in vivo
Settings: mouse, po, PI (TD50/ED50) MES, mice
measurement_label: selectivity ratio
API doc: respond with a numeric literal and nothing else, no unit.

(Q) selectivity ratio for CCC1(c2ccccc2)NC(=O)N(C)C1=O (stereo not shown) ?
(A) 5.37
